Data credit: patent US9120793B2

# system: human GPR-40 (Homo sapiens, UniProt O14842)
# Construct: expressed in transfected cells; host or cells: HEK293
# Sequence (O14842 whole entry): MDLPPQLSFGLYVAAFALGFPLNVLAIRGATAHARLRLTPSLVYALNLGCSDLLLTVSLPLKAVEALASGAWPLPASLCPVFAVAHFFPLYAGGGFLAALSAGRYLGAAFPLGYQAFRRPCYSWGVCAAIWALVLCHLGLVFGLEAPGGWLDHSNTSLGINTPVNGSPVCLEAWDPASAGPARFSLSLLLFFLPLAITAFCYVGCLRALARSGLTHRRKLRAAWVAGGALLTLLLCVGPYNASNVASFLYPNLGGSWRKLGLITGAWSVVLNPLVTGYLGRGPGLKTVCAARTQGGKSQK
# procedure-text: Calcium Flux Primary Assay
# Type: cell-based
# condition: HEK293 cells over expressing human GPR-40; intracellular calcium, FLIPR
reported-endpoint: pEC50
Numbers only, as −log10 of the molar value.

Exercise: For the compound shown here, CC#C[C@@H](CC(=O)O)c1ccc(OCc2ccc3nc(-c4c(C)cccc4C)nn3c2)cc1 [Example 1] , give the reported pEC50.
Key: 6.92

----------
# system: mGPR-40 (mFFAR1) (Mus musculus)
# Sequence (Q76JU9 whole entry): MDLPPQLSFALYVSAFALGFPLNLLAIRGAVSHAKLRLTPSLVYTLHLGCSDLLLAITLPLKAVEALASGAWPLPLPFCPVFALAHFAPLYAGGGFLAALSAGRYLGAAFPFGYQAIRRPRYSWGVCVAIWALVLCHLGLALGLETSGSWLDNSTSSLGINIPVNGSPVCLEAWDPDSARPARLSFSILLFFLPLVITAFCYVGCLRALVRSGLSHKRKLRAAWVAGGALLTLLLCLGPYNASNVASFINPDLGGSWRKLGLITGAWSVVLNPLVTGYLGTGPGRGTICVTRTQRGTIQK
# Sequence (P32121 whole entry partner): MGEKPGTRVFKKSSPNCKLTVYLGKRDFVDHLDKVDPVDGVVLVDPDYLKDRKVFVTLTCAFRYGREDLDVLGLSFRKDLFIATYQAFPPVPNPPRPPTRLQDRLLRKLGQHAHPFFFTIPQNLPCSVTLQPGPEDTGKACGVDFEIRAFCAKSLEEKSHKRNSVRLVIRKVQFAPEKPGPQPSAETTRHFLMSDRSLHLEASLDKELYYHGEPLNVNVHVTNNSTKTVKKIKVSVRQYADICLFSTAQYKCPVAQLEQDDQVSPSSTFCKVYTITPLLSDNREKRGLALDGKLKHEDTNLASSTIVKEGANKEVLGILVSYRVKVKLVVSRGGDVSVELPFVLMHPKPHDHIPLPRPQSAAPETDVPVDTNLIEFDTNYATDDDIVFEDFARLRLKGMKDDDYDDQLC
# procedure-text: Mouse beta-arrestin agonist assay with 1% FBS
# condition: U2OS cells expressing mFFAR1, 1% FBS, 90 min; read-out: mGPR-40 b-arrestin EC50
reported-endpoint: EC50 (nM)
One number for each entry, in nM.

Exercise: For the molecule shown here, CC#C[C@@H](CC(=O)O)c1ccc(OCc2ccc3nc(-c4c(C)cccc4C)nn3c2)cc1 [Example 1] , give the reported EC50.
Key: 3.63
